Origin of the recorded values: ChEMBL document CHEMBL1153197

measuredTarget: UniProt:P21918
Sequence (P21918 whole entry): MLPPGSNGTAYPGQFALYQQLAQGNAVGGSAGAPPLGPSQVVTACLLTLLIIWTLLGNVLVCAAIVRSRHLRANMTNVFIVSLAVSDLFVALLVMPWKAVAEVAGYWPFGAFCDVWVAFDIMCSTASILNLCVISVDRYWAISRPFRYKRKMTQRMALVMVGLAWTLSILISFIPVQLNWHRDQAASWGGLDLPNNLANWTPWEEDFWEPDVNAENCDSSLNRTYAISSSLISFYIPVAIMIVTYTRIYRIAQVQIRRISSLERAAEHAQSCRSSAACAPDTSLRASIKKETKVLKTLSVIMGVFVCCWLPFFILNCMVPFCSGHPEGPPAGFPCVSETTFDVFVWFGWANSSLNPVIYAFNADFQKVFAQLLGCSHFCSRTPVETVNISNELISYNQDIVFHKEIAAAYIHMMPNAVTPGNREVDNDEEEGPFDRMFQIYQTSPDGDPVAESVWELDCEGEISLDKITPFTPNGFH
measuredEndpoint: Ki (nM)
Provide the reading as a plain figure in nM.

Ki value, target or system UniProt:P21918, for COc1cc2c3c(c1OC)-c1cc4c(cc1CC3N(C)CC2)OCO4 (racemic) : 2400

###

measuredTarget: UniProt P08588
Sequence (P08588 whole entry): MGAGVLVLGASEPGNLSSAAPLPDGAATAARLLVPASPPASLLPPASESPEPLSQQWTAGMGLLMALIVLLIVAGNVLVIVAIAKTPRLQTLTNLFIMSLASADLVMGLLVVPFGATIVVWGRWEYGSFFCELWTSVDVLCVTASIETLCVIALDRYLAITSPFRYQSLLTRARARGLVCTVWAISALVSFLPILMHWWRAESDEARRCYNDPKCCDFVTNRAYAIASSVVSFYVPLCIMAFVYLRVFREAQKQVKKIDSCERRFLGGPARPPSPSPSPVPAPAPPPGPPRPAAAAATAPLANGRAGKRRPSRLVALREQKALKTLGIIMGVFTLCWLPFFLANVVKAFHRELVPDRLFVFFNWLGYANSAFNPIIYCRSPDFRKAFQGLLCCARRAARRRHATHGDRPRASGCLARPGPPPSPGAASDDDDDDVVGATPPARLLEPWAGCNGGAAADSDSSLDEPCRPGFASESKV
measuredEndpoint: pKi
As a rule, pKi stands for the negative log10 of the concentration, concentration in M.

Summary line: COc1cc2c3c(c1OC)-c1cc4c(cc1CC3N(C)CC2)OCO4 (racemic) [NANTENINE] , UniProt P08588, reported pKi = 5.07

###

measuredTarget: 5-hydroxytryptamine receptor 3A (Homo sapiens)
Sequence (P46098 whole entry): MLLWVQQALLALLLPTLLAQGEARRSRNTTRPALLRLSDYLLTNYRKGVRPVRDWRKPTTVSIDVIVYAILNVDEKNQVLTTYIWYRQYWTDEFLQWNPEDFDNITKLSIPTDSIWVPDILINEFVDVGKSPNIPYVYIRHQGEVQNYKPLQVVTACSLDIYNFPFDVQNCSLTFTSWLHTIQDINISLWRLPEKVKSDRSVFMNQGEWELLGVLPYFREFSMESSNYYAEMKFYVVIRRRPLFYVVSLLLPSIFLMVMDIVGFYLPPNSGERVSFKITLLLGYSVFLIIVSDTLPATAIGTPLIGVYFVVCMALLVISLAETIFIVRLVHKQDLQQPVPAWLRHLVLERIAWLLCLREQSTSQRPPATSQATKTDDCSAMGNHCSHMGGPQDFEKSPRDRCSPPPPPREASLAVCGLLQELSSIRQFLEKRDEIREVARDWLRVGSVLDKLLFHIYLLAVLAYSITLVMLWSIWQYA
pKi: −log10 of the molar value.
measuredEndpoint: pKi

For this compound ( COc1cc2c3c(c1OC)-c1cc4c(cc1CC3N(C)CC2)OCO4 (racemic) [NANTENINE] ), measured pKi is < 5.00
